Tested on: human pancreas ductal adenocarcinoma Panc cells (Panc1)
Test: Cancer cell line growth inhibition assay (DNA content)
Format: cell-based
Conditions: Homo sapiens, PANC-1; Panc1; Calcusyn fit; runs Oct. 21 and Oct. 24, 2016; read-out: Dm
EXPERIMENTAL_ENDPOINT: IC50 (µM)

1. Oc1ccc2ccccc2c1-c1nnc(-c2cccnc2)o1 [Oxa F]
2. Oc1ccccc1-c1nnc(-c2c(O)ccc3ccccc23)o1 [Oxa A]
Field: entry with larger IC50 (options 1 / 2 ). Write the label of whichever entry you select.
2
(2: 53.6 µM, 1: 1.92 µM)

###

Tested on: human colon cancer HCT116
Assay: Cancer cell line growth inhibition assay (DNA content)
Type: cell-based
Details: HCT-116; Calcusyn fit; runs Oct. 21 and Oct. 24, 2016; listed as NSAAH (new); read-out: Dm
EXPERIMENTAL_ENDPOINT: pIC50
A value of pIC50 is the negative decimal logarithm of a concentration given in moles per litre.

Return reported pIC50; argument: O=C(NN=Cc1c(O)ccc2ccccc12)c1ccccc1O [NSAAH, Naphthyl Salicyl Acyl Hydrazone, reference compound]
6.75
